Target: T1, RC-Fc (human)
T1 construct: Knob-in-hole heterodimer of the R chain and the C chain, human IgG1 Fc; expressed in 293 cells, purified on Protein A; also called RC-Fc fusion protein; reconstructed CGRP receptor extracellular region
T1 sequence (chain, as listed by the source limits assumed, chain 1 of 2): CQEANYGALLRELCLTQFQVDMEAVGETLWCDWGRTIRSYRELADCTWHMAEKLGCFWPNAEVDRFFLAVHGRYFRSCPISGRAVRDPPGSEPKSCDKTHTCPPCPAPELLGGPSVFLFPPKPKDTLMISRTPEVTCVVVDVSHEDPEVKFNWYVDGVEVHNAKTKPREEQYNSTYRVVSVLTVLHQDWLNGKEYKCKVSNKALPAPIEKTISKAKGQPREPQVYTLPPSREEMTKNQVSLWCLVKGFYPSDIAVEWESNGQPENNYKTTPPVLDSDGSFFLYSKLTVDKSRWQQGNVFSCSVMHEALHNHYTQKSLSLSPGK
T1 sequence (chain, as listed by the source limits assumed, chain 2 of 2): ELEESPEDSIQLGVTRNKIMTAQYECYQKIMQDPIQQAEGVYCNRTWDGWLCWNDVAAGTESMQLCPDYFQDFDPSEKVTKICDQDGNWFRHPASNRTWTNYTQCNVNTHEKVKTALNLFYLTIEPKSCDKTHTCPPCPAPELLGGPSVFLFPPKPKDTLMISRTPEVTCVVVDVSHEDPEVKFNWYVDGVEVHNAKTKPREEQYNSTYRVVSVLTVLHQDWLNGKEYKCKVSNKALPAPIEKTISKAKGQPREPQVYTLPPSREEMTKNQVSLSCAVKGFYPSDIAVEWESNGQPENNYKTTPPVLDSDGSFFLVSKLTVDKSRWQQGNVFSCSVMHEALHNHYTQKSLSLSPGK
Experiment: ELISA, RC-Fc coated, VHH-His titrated, anti-His-HRP; Exp3
measuredQuantity: EC50 (nM)
Return type: number; implicit unit nM.

Solved entries:
[[record]]
binder = "A10-268-103 (VHH, Llama VHH with C-terminal 6xHis, expressed in 293 cells; also called B828605) VHH: QVQLVESGGGLVQAGGSLRLSCVASGRTFSSYAMGWFRQAPGKEREFVSGITESGATTRYADSMRGRFIISRDNAQNTVYLEMNSLKPEDSAVYYCAASRFGITVPTAKGAYNYWGQGTQVTVSS"
numericresult = 0.265

[[record]]
binder = "A10-269-385 (VHH, Llama VHH with C-terminal 6xHis, expressed in 293 cells; also called N220505107) VHH: EVQLVESGGGLVQAGGSLRVSCQASEISFSFHAMGWYRQAPGKQRELVARITSIGRTTYADFVKGRFTISRGNAKNTVYLQMNSLKPEDTAVYYCNAEPGRVNYEYWGQGTQVTVSS"
numericresult = 0.061

[[record]]
binder = "A10-268-42 (VHH, Llama VHH with C-terminal 6xHis, expressed in 293 cells; also called B828603; 42wt) VHH: QVQLVESGGGLVQAGDSLRLSCAASGRTFSGYVMGWFRQAPGKEREFVAALRWSSSNTNYAASVKGRFTISRDYAKDTVYLQMNSLKPDDTAVYYCAAKRDRPYGSTWTPVAADYDTWGQGTQVTVSS"
numericresult = 0.021


Incoming: EC50 for A10-269-238 (VHH, Llama VHH with C-terminal 6xHis, expressed in 293 cells; also called N220505106) VHH: QVQLVESGGGLVQPGGSLRLSCAASGFTFGNYDMSWVRQAPGKGPEWVSGIAPAGTITRYADSVKGRFTISRDNAKNTLYLQMNSLKPEDTAVYRCAKGASWGQGTQVTVSS ?
Outgoing: 0.081
